target or test system: T1, Leishmania major profilin (LmProfilin), wild type (Leishmania major, UniProt Q4Q5N1 2-150)
T1 construct: Leishmania major profilin, TriTrypDB LmjF.32.0520, UniProt Q4Q5N1; codon-optimised synthetic gene in pCoofy3; also called WT LmProfilin; LmProf-WT; source: E. coli BL21(DE3), purified (Ni-NTA, tag cleavage with 3C-PreScission protease, gel filtration); not shown: His6, N-terminal, cleaved; GST, N-terminal, cleaved
T1 sequence: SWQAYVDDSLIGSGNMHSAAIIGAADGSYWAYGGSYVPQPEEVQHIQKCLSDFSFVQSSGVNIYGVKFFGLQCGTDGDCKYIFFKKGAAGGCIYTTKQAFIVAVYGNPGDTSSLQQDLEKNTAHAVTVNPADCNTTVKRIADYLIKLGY
protocol text: other fluorescence titration; intrinsic tryptophan fluorescence of profilin (1 μM) with 3 to 3156 μM poly-L-proline decamer; room temperature; 20 mM Hepes pH 8.0, 50 mM NaCl; excitation 295 nm; OneSiteBind fit
condition set: both partners purified
assay metric: pKd
# pKd: negative log10 of molar concentration; output just the value

Tell me pKd reported for PPPPPPPPPP (ten L-prolines written out from these words; also called poly-L-proline decamer; polyproline decamer; source: synthetic peptide, bought: CASLO ApS) [decamer poly-L-proline peptide]
3.58
